target: rhKLK7 (human, UniProt P49862 30-253); assay: cell-based or functional assay
Sequence (P49862 30-253): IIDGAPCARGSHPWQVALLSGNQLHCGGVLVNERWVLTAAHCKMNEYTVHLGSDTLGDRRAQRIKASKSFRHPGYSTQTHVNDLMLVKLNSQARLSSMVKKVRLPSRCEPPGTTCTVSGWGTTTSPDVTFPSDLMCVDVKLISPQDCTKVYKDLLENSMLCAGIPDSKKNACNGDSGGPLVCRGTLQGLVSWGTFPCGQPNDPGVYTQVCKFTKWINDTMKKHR
experimentalReadout: KLK7 IC50 (nM) pH 7.5 (enzymatic activity)
All answers are understood in nM, so give the number only.

Return the recorded KLK7 IC50 (nM) pH 7.5 (enzymatic activity) value; entry: Spink9-30.Fc (SEQ ID NO: 55) (Fc fusion, Mutant SPINK9 domain fused directly to a C-terminal IgG Fc) IECAKQTKQMVDCSHYKKLPPEQVSWCTREYDPICGSDGKTYKNDCFFCSKVKKTDGTLKFVHFGKCEPKSCDKTHTCPPCPAPEAAGGPSVFLFPPKPKDTLMISRTPEVTCVVVDVSHEDPEVKFNWYVDGVEVHNAKTKPREEQYNSTYRVVSVLTVLHQDWLNGKEYKCKVSNKALPAPIEKTISKAKGQPREPQVYTLPPSREEMTKNQVSLTCLVKGFYPSDIAVEWESNGQPENNYKTTPPVLDSDGSFFLYSKLTVDKSRWQQGNVFSCSVLHEALHSHYTQKSLSLSPGK
10.8

Write down KLK7 IC50 (nM) pH 7.5 (enzymatic activity) measured for item Spink9-186.Fc (SEQ ID NO: 58) (Fc fusion, Mutant SPINK9 domain fused directly to a C-terminal IgG Fc) IECAKQTKQMVDCSHYKKLPPAQLIYCTKEYDPICGSDGKTYKNDCFFCSKVKKTDGTLKFVHFGKCEPKSCDKTHTCPPCPAPEAAGGPSVFLFPPKPKDTLMISRTPEVTCVVVDVSHEDPEVKFNWYVDGVEVHNAKTKPREEQYNSTYRVVSVLTVLHQDWLNGKEYKCKVSNKALPAPIEKTISKAKGQPREPQVYTLPPSREEMTKNQVSLTCLVKGFYPSDIAVEWESNGQPENNYKTTPPVLDSDGSFFLYSKLTVDKSRWQQGNVFSCSVLHEALHSHYTQKSLSLSPGK
8.3

Could you please provide reported KLK7 IC50 (nM) pH 7.5 (enzymatic activity) for Spink9-236.Fc (SEQ ID NO: 60) (Fc fusion, Mutant SPINK9 domain fused directly to a C-terminal IgG Fc) IECAKQTKQMVDCSHYKKLPPEQQLMCTREYDPICGSDGKTYKNDCFFCSKVKKTDGTLKFVHFGKCEPKSCDKTHTCPPCPAPEAAGGPSVFLFPPKPKDTLMISRTPEVTCVVVDVSHEDPEVKFNWYVDGVEVHNAKTKPREEQYNSTYRVVSVLTVLHQDWLNGKEYKCKVSNKALPAPIEKTISKAKGQPREPQVYTLPPSREEMTKNQVSLTCLVKGFYPSDIAVEWESNGQPENNYKTTPPVLDSDGSFFLYSKLTVDKSRWQQGNVFSCSVLHEALHSHYTQKSLSLSPGK ? Thanks!
43.6
